- procedure.text: qHTS assay for small molecule disruptors of the mitochondrial membrane potential (AID 720635)
- experimental.parameters: HepG2 mitochondrial membrane potential, Mito-MPS dye ratio; series mostly up to 83.2 µM
Inconclusive results are not listed. Calls of active or inactive are those of the source. Calls follow the shape of the dose curve; as a rule, active = well fitted inhibition curve with a large enough effect in the signal ratio in the repeat runs; inconclusive = weak or mixed curves, or effect the other way; inactive = flat fitted curve, though single readings scatter; the % refers to the signal ratio.
# valid calls are 1 (active), -1 (inactive); nothing else

[[record]]
compound = "CCCC(C)=O"
assigned_class = -1

[[record]]
compound = "CCCCCCCC(=O)OC"
assigned_class = -1

[[record]]
compound = "O=C(O)CC(C(=O)O)C(CC(=O)O)C(=O)O (stereo unspecified)"
assigned_class = -1


Assay result, entry `CCCCCC1=CCCC1=O` — outcome?
-1

Assay result, entry `O=C(O)CCCCCCCCCCC(=O)O` — outcome?
-1

Assay result, entry `c1ccc2c(c1)ccc1ccccc12` — outcome?
1

Assay result, entry `O=c1[nH]c(=O)n([C@H]2CCCO2)cc1F` — outcome?
-1

Assay result, entry CCCCC(CC)COC(=O)C(C#N)=C(c1ccccc1)c1ccccc1 (stereo unspecified) — outcome?
1

Assay result, entry `O=C(Oc1ccccc1)c1ccccc1` — outcome?
-1

Assay result, entry `Cc1ccc(S(N)(=O)=O)cc1` — outcome?
-1

Assay result, entry `O=S(=O)(O)c1ccc2ccccc2c1` — outcome?
-1

Assay result, entry `CC(C)CC(=O)CC(C)C` — outcome?
-1

Assay result, entry `O=c1[nH]nnc2ccccc12` — outcome?
-1

Assay result, entry `Cc1occc(=O)c1O` — outcome?
-1

Assay result, entry `COS(C)(=O)=O` — outcome?
-1

Assay result, entry `Cc1ccc2oc(=O)ccc2c1` — outcome?
-1

Assay result, entry CC1CCC2CC1C2(C)C (stereo unspecified) — outcome?
-1

Assay result, entry `COc1ccc(NC(C)=O)cc1N` — outcome?
-1

Assay result, entry `O=C(OCCOCCOC(=O)c1ccccc1)c1ccccc1` — outcome?
-1

Assay result, entry `COc1cc(Cc2cnc(N)nc2N)cc(OC)c1OC` — outcome?
-1

Assay result, entry CC(c1cc2ccccc2s1)N(O)C(N)=O (stereo unspecified) — outcome?
-1

---

- procedure.text: Caspase-3/7 induction in HepG2 cells by small molecules, qHTS cell viability counter screen (AID 1346981); also: % is scaled to controls: 0 for no effect and ±100 for the full control effect; nearly all actives have a fitted effect of over 30% in size
- experimental.parameters: CellTiter-Fluor fluorescence, 17 h; series mostly up to 92.4 µM
Results filed as inconclusive are left out. Activity calls are given as the source filed them. Calls follow the shape of the dose curve; as a rule, active = well fitted cell-killing curve with a large enough effect in the repeat runs; inconclusive = weak or mixed curves, or effect the other way; inactive = flat fitted curve, though single readings scatter.
readout: outcome

Example entries and their recorded answers appear below.
[[record]]
smiles_repr = "O=C(O)[C@H](O)[C@@H](O)[C@H](O)[C@H](O)CO"
measured = "inactive"

[[record]]
smiles_repr = "Fc1ccc(Br)cc1"
measured = "inactive"

[[record]]
smiles_repr = "C[C@H]1C[C@H]2[C@@H]3CCC4=CC(=O)C=C[C@]4(C)[C@@]3(F)[C@@H](O)C[C@]2(C)[C@@]1(O)C(=O)CO"
measured = "inactive"

[[record]]
smiles_repr = "O=S1(=O)CC=CC1"
measured = "inactive"

[[record]]
smiles_repr = "CCCCCCCCCCCCCCO"
measured = "inactive"


Please look at the following compound next.
Entry under review: `C=C(C)C(=O)OCCOCCOCCOC(=O)C(=C)C` . Reported outcome?
inactive

---

- procedure.text: qHTS assay for small molecule agonists of the antioxidant response element (ARE) signaling pathway - cell viability counter screen (AID 743203); also: % is scaled to controls: 0 for no effect and ±100 for the full control effect; nearly all actives have a fitted effect of over 55% in size
- experimental.parameters: ARE-bla HepG2 viability, CellTiter-Glo luminescence, 16 h; series mostly up to 73.3 µM
Records with an inconclusive call do not appear. The source made the active and inactive calls. Calls follow the shape of the full dose curve.
readout: viability change, negative = cytotoxic

[[record]]
compound = "CC(C)c1ccc(S(=O)(=O)O)cc1"
measured = "inactive"

[[record]]
compound = "C=C(C)C(=O)O[C@H]1C[C@@H]2CC[C@@]1(C)C2(C)C"
measured = "inactive"

[[record]]
compound = "C=C(C)C(=O)Nc1ccc(Cl)c(Cl)c1"
measured = "inactive"

[[record]]
compound = "CCN(CC)CCCC(C)Nc1ccnc2cc(Cl)ccc12 (stereo not drawn)"
measured = "-7.65% [at 8.36 µM] (inactive)"

[[record]]
compound = "CC1=CCC2CC1C2(C)C (stereo not drawn)"
measured = "inactive"


Entry under review: `O=c1[nH]c(=O)n([C@H]2C[C@H](O)[C@@H](CO)O2)cc1Br` . Reported viability change, negative = cytotoxic?
inactive

Entry under review: `C=CCOC(=O)c1ccccc1C(=O)OCC=C` . Reported viability change, negative = cytotoxic?
inactive

Entry under review: `O=S1(=O)CC=CC1` . Reported viability change, negative = cytotoxic?
inactive

Entry under review: `CC1=CC(=O)NS(=O)(=O)O1` . Reported viability change, negative = cytotoxic?
inactive

Entry under review: `CC(=O)Nc1ccccc1` . Reported viability change, negative = cytotoxic?
inactive

Entry under review: `O=C(O)c1cc(O)c(O)c(O)c1` . Reported viability change, negative = cytotoxic?
inactive

Entry under review: `C[C@H]1C[C@@H]2[C@H]([C@@H](O)C[C@@]3(C)[C@H]2CC[C@]3(O)C(=O)CO)[C@@]2(C)C=CC(=O)C=C12` . Reported viability change, negative = cytotoxic?
inactive

Entry under review: O=C(O)CC(C(=O)O)C(CC(=O)O)C(=O)O (stereo not drawn) . Reported viability change, negative = cytotoxic?
inactive

---

- tested.target: Retinoic acid receptor RXR-alpha (Homo sapiens)
- procedure.text: qHTS assay to identify small molecule agonists of the RXR signaling pathway (AID 1159527); also: % is scaled to controls: 0 for no effect and ±100 for the full control effect; nearly all actives have a fitted effect of over 35% in size
- experimental.parameters: HEK293T RXRa-UAS-bla, beta-lactamase ratio, 16 h; series mostly up to 76.8 µM
Inconclusive results are not listed. Active and inactive are the calls of the source. Calls come from the whole dose curve.
# valid calls are true (active), false (inactive); nothing else

[[record]]
molecule = "C[C@H]1C[C@H]2[C@@H]3CCC4=CC(=O)C=C[C@]4(C)[C@@]3(F)[C@@H](O)C[C@]2(C)[C@@]1(O)C(=O)CO"
assigned_class = "false"

[[record]]
molecule = "CCC(O)OCCCOC (centres undefined)"
assigned_class = "false"

[[record]]
molecule = "CN(C)CCCN"
assigned_class = "false"

[[record]]
molecule = "OCC(CO)(CBr)CBr"
assigned_class = "false"

[[record]]
molecule = "CCCCOC(=O)COc1ccc(Cl)cc1Cl"
assigned_class = "false"


Now for another entry.
Assay result, entry `CCCCCCOCCO` — outcome?
false

---

- procedure.text: qHTS RealTime-Glo MT Cell Viability Assay in HEK293 cells - 24 hour (AID 1224886); also: nearly all actives have a fitted effect of over 50% in size
- experimental.parameters: RealTime-Glo luminescence; series mostly up to 76.8 µM
- Source text: National Center for Advancing Translational Sciences [NCATS] NIH Chemical Genomics Center [NCGC] U.S. Environmental Protection Agency [EPA] National Institutes of Environmental Health Sciences [NIEHS] National Toxicology Program [NTP] U.S. Food and Drug Administration [FDA] Measure of cell viability is critical in the cell-base assay. Analysis of cell viability is necessary for the characterization of cell responses to cytotoxic drugs and environmental stress. […]
Inconclusive results are not listed. Active and inactive are the calls of the source. Calls come from the whole dose curve; as a rule, active = well fitted cell-killing curve with a large enough effect in the repeat runs; inconclusive = weak or mixed curves, or effect the other way; inactive = flat fitted curve, though single readings scatter.
# valid calls are active, inactive; nothing else

Example cases with answers are listed next.
[[record]]
smiles_repr = "CCCCCC1=CCCC1=O"
assigned_class = "inactive"

[[record]]
smiles_repr = "C=CCOC(=O)c1ccccc1C(=O)OCC=C"
assigned_class = "inactive"

[[record]]
smiles_repr = "Cc1cc(C)c(C)cc1C"
assigned_class = "inactive"

[[record]]
smiles_repr = "c1c[nH]cn1"
assigned_class = "inactive"

[[record]]
smiles_repr = "O=C(O)c1ccc2c(c1)C(=O)OC2=O"
assigned_class = "inactive"

[[record]]
smiles_repr = "O=P(OC(CCl)CCl)(OC(CCl)CCl)OC(CCl)CCl"
assigned_class = "active"

[[record]]
smiles_repr = "c1ccc(OCCOc2ccccc2)cc1"
assigned_class = "inactive"


Now for another entry.
Assay result, entry `Cc1ccc(N(C)C)cc1` — outcome?
inactive

---

- procedure.text: qHTS assay for small molecule agonists of the antioxidant response element (ARE) signaling pathway - cell viability counter screen (AID 743203); also: % is scaled to controls: 0 for no effect and ±100 for the full control effect; nearly all actives have a fitted effect of over 55% in size
- experimental.parameters: ARE-bla HepG2 viability, CellTiter-Glo luminescence, 16 h; series mostly up to 73.3 µM
Records with an inconclusive call do not appear. Activity calls are given as the source filed them. Calls follow the shape of the full dose curve.
readout: viability change, negative = cytotoxic

Example entries and their recorded answers appear below.
[[record]]
molecule = "CC(=O)Nc1cccc(O)c1"
readout = "viability change, negative = cytotoxic"
measured = "inactive"

[[record]]
molecule = "C[C@H]1C[C@H]2[C@@H]3CCC4=CC(=O)C=C[C@]4(C)[C@@]3(F)[C@@H](O)C[C@]2(C)[C@@]1(O)C(=O)CO"
readout = "viability change, negative = cytotoxic"
measured = "inactive"

[[record]]
molecule = "CCCCCCCCCCCCS"
readout = "viability change, negative = cytotoxic"
measured = "inactive"

[[record]]
molecule = "CCCCCCCCCCCCOCCO"
readout = "viability change, negative = cytotoxic"
measured = "inactive"

[[record]]
molecule = "Nc1ccccc1[N+](=O)[O-]"
readout = "viability change, negative = cytotoxic"
measured = "inactive"

[[record]]
molecule = "CCCCC(CC)COC(=O)CCCCC(=O)OCC(CC)CCCC (configuration not stated)"
readout = "viability change, negative = cytotoxic"
measured = "inactive"


Please look at the following molecule next.
Entry under review: `CC(C)(C)[C@@H](O)[C@@H](Cc1ccc(Cl)cc1)n1cncn1` . Reported viability change, negative = cytotoxic?
inactive
